# Tested on: ACHN
# test summary: NCI tumour cell line growth inhibition, 48 h
Activity calls are given as the source filed them. Cut-off read from the data, not from the text of the source: active = GI50 up to about 1.1 µM and inactive = higher.
readout label: GI50

For the compound CC12CC(=O)NN=C1c1ccccc1C2 (centres undefined) , what GI50 is on record?
> 100 µM (inactive)

For the compound O=c1[nH]cnc2[nH]nnc12 , what GI50 is on record?
12 µM (inactive)

For the compound NNC(=O)CC(=O)Nc1ccc(C(=O)O)cc1 , what GI50 is on record?
> 100 µM (inactive)

For the compound O=C(O)CN1CCNCCN(CC(=O)O)CC1 , what GI50 is on record?
> 84.5 µM (inactive)

----------
# System: MDA-N
# test summary: NCI tumour cell line growth inhibition, 48 h
Calls of active or inactive are those of the source. No stated cut-off is given here; in the data, active = GI50 up to about 1.1 µM and inactive = higher. Where a SMILES comes first, the peptide text is derived from it. The star is where a group is joined. X33 = O=C(c1ccc(-c2ccc(Cl)cc2Cl)o1)*
Hi! Could you answer with just one of these? T = active, F = inactive

Which outcome was assigned to CCOC(=O)C1CC(C(=O)c2ccccc2)N2c3ccccc3-c3ccccc3C12 (configuration not stated) in this test?
F

Which outcome was assigned to COc1cc2cc(C(=O)N3CC(CCl)c4c3cc(NC(=O)OCc3ccc([N+](=O)[O-])cc3)c3ccccc43)[nH]c2c(OC)c1OC (configuration not stated) in this test?
F

Which outcome was assigned to CC(C)(C)c1cc(S(=O)(=O)O)c2oc(-c3ccccc3)cc(=O)c2c1 in this test?
F

Which outcome was assigned to CN(Cc1cnc2c(N)nc(N)nc2n1)c1ccc(Cl)cc1 in this test?
F

Which outcome was assigned to O=C(CN1C(=O)c2ccccc2C1=O)OCC1CCCN2CCCCC12 (configuration not stated) in this test?
F

Which outcome was assigned to CCOc1c(OC)cc(CNNc2nccs2)cc1OC in this test?
F

Which outcome was assigned to CCOC(=O)[C@@]12CCC(C1=O)[C@](C)(O)C[C@@H]2c1ccccc1 in this test?
F

Which outcome was assigned to Nc1ccc(S(=O)(=O)c2ccc(NC(=O)c3cccnc3)cc2)cc1 in this test?
F

Which outcome was assigned to Nc1ccc(S(=O)(=O)Nc2nc3ccccc3nc2N2CCCCCC2)cc1 in this test?
F

Which outcome was assigned to Cc1nc(N)nc(N)c1N1CCN(Cc2ccccc2)CC1 in this test?
F

Which outcome was assigned to CC(C)[Si](OC1=C(C(=O)N(C)c2cccc(Cl)c2)CCCC1)(C(C)C)C(C)C in this test?
F

Which outcome was assigned to CC(=O)O[C@H]1CN(S(=O)(=O)c2ccc(C)cc2)C[C@@H]1C1CCCCC1 in this test?
F

Which outcome was assigned to O=S1(=O)OCCOS(=O)(=O)C1(F)Br in this test?
F

Which outcome was assigned to COC(=O)c1c(O)ccc2c1c1c(n2CCc2ccccc2)C(=O)c2ccccc2C1 in this test?
F

Which outcome was assigned to CC(=O)OCC1OC(O[C@@H]2C[C@H]3C(C)(C)[C@@H](OC(C)=O)CC[C@]3(C)[C@H]3CC[C@]45C[C@]4(CC[C@H]5[C@@H](C)C[C@@H](O)[C@H](O)C(C)(C)F)[C@@]32C)C(O)C(O)C1O (some centres not stated) in this test?
F

Which outcome was assigned to O=C1CCCN1C(=O)CS(=O)(=O)c1ccccc1 in this test?
F

Which outcome was assigned to COc1ccc2c3c(ccc2c1)NC(C(=O)O)CC3 (configuration not stated) in this test?
F

Which outcome was assigned to CCN(CC)CCSc1c2cc(OC)ccc2nc2ccc(OC)cc12 in this test?
F

Which outcome was assigned to CSC(=S)N/N=C(\C)c1cccc(C)n1 in this test?
T

Which outcome was assigned to NC(=O)c1c[se]c(C2OC(CO)C(O)C2O)n1 (configuration not stated) in this test?
F

Which outcome was assigned to COc1cc(OC)nc(-n2c(N)c(C#N)c3ccc([N+](=O)[O-])cc3c2=O)n1 in this test?
F

Which outcome was assigned to CN(C(=O)c1cccs1)C(=S)N1CCN(c2ccccc2)CC1 in this test?
F

Which outcome was assigned to CCC1CCC2c3c([nH]c4ccc(C)cc34)C3C(=O)N(N(C)C)C(=O)C3C2C1 (configuration not stated) in this test?
T

Which outcome was assigned to C1=Cc2cccc3occ(c23)C=C1 in this test?
F

Which outcome was assigned to O=C(CC(=O)Nc1ccccc1Cl)NNC(Sc1ccccc1)c1cc(/N=N/c2ccc(Br)cc2)ccc1O (configuration not stated) in this test?
F

Which outcome was assigned to Cc1nc2c(=O)n(-c3ccccc3)c(=O)n(-c3ccccc3)c2o1 in this test?
F

Which outcome was assigned to S=P(C1CCCCC1)(C1CCCCC1)C(c1cccnc1)N1CCCC1 (configuration not stated) in this test?
F

Which outcome was assigned to CCC(C)C(NC(=O)CNC(=O)C(Cc1ccccc1)NC(=O)C1CCCN1C(=O)c1ccc(-c2ccc(Cl)cc2Cl)o1)C(=O)OC (configuration not stated) (X33-PFGI-OMe; configuration not given here) in this test?
F

Which outcome was assigned to Cc1cn(C2CC(O)C(COC(=O)NCCC(F)(F)C(F)(F)C(F)(F)C(F)(F)F)O2)c(=O)[nH]c1=O (configuration not stated) in this test?
F

Which outcome was assigned to Brc1ccc2c(-c3csc(-c4c[nH]c5cc(Br)ccc45)n3)c[nH]c2c1 in this test?
F

Which outcome was assigned to Cc1cc(NS(=O)(=O)c2ccc(NC(=O)c3cccc4c(NNc5ccc(S(N)(=O)=O)cc5)c5ccccc5nc34)cc2)no1 in this test?
F

Which outcome was assigned to CC(=O)/N=C1/N(/C=C2\C(=O)Oc3ccccc3C2=O)C(=O)/C(=C/c2ccccc2Cl)N1C in this test?
F

----------
# Test system: M14
# test summary: NCI tumour cell line growth inhibition, 48 h
Activity calls are given as the source filed them. Cut-off read from the data, not from the text of the source: active = GI50 up to about 1.1 µM and inactive = higher.
Give GI50 for every item shown.

For the compound C=CCN1C(=O)/C(=C/c2ccc(C)cc2)N=C1SC/C=C/C , what GI50 is on record?
45.6 µM (inactive)

For the compound COc1ccc(/C(Cl)=C(\C=O)c2ccc(Cl)cc2)cc1OC , what GI50 is on record?
22.4 µM (inactive)

For the compound CC1(C)C2CCC(N)(C2)C1N (stereo not given) , what GI50 is on record?
> 100 µM (inactive)

For the compound Cc1cc(S(=O)(=O)N2CCNNC2=O)c(S)cc1Cl , what GI50 is on record?
41.6 µM (inactive)

For the compound COc1ccc(CC2C(=O)NC(C)C(=O)N(C)C3C(=O)N(C)C(Cc4ccc(O)c(c4)Oc4ccc(cc4)C3O)C(=O)NC(C)C(=O)NC(C)C(=O)N2C)cc1 (stereo not given) , what GI50 is on record?
0.0275 µM (active)

For the compound CCOC(=O)c1[nH]c(CN(C)Cc2[nH]c(C(=O)OCC)c(C)c2C(=O)OCc2ccccc2)c(C(=O)OCc2ccccc2)c1C , what GI50 is on record?
4.99 µM (inactive)

For the compound CN(C)CC1(C)CC/C(=C\c2ccc(Cl)cc2)C1=O (stereo not given) , what GI50 is on record?
43.2 µM (inactive)

For the compound O=c1cc(-c2ccccc2)oc2cc(OCCCOc3ccc4c(=O)cc(-c5ccccc5)oc4c3)ccc12 , what GI50 is on record?
> 100 µM (inactive)

For the compound CN(C)CCNC(=O)Cn1ccc(=O)c2c([N+](=O)[O-])cccc21 , what GI50 is on record?
> 100 µM (inactive)

For the compound O=C1NC(=O)c2c1n(Cc1ccccc1)c(=O)n2Cc1ccccc1 , what GI50 is on record?
> 100 µM (inactive)

For the compound COC(=O)/C(=N/NC(C)(C)C)C(C(=O)OC)C(=O)C(=O)Nc1nc2ccc([N+](=O)[O-])cc2s1 (stereo not given) , what GI50 is on record?
> 100 µM (inactive)

For the compound NC(=O)CC(N)C(=O)NC(Cc1ccccc1)C(=O)NC(Cc1ccccc1)NC(=O)C(Cc1c[nH]c2ccccc12)C(=O)O (stereo not given) , what GI50 is on record?
> 100 µM (inactive)

For the compound CC1OC(n2cc(F)c(=O)[nH]c2=O)C=CC1O (stereo not given) , what GI50 is on record?
> 100 µM (inactive)

For the compound Cc1c(-c2nc(N)c(C#N)c(N)c2C#N)c(=O)oc2ccccc12 , what GI50 is on record?
> 100 µM (inactive)

For the compound O=C(Nc1ccc(Cl)cc1Cl)c1c/c(=N\O)c2ccc(O)cc2o1 , what GI50 is on record?
> 100 µM (inactive)

For the compound CN/C(=N/C#N)NCc1ccccc1 , what GI50 is on record?
> 100 µM (inactive)

For the compound CCOc1ccc(N/C(=C(/C(Cl)=C(/Cl)N2CCCCC2)[N+](=O)[O-])n2nnc3ccccc32)cc1 , what GI50 is on record?
14.9 µM (inactive)

For the compound O=[N+]([O-])c1ccc(C2=Nn3c(nnc3-c3ccccc3)SC2)o1 , what GI50 is on record?
17.6 µM (inactive)

For the compound Nc1c(-c2nc3ccccc3[nH]2)sc(=S)n1-c1ccccc1 , what GI50 is on record?
> 100 µM (inactive)

For the compound Nc1nc(SCCC/C=C/B(O)O)nc2c1ncn2C1OC(CO)C(O)C1O (stereo not given) , what GI50 is on record?
> 243 µM (inactive)

For the compound O=c1c(Nc2ccccc2)cn(CCOc2ccc(Cl)cc2)c(=O)n1CCOc1ccc(Cl)cc1 , what GI50 is on record?
60.3 µM (inactive)

For the compound CC(C)[C@H](O)C(=O)N[C@H]1Cc2ccc3c(c2)[C@]24C5=C(N=C(O5)[C@H](C(C)C)NC1=O)c1nc(Cl)c(o1)-c1c(Cl)[nH]c5cccc(c15)-c1cccc2c1N[C@H]4O3 , what GI50 is on record?
0.0311 µM (active)

For the compound CNc1nnc(CCCCCCCCc2nnc(NC)o2)o1 , what GI50 is on record?
> 100 µM (inactive)

For the compound COc1cc2ccc1-c1cc(ccc1O)CC1c3cc4c(cc3CCN1C)Oc1c(OC)cc3c(c1O4)C(C2)N(C)CC3 (stereo not given) , what GI50 is on record?
1.82 µM (inactive)

For the compound CCCCCCCCCC(=O)OCC1(CO)C/C(=C/CC(C(C)C)C(C)C)C(=O)O1 (stereo not given) , what GI50 is on record?
51.2 µM (inactive)
